# targetSystem: human Werner helicase (WRN, Uniprot Q14191, amino acids 517-1235 with L1074F point mutation; WRN-BV08) (Homo sapiens, UniProt Q14191, L1074F)
# Construct: Uniprot Q14191, amino acids 517-1235 with L1074F point mutation; 8xHis (C, cleaved yes); TEV cleavage site (ENLYFQG) (C, cleaved yes)
# Sequence (Q14191 with tags, fused parts or gaps L1074F): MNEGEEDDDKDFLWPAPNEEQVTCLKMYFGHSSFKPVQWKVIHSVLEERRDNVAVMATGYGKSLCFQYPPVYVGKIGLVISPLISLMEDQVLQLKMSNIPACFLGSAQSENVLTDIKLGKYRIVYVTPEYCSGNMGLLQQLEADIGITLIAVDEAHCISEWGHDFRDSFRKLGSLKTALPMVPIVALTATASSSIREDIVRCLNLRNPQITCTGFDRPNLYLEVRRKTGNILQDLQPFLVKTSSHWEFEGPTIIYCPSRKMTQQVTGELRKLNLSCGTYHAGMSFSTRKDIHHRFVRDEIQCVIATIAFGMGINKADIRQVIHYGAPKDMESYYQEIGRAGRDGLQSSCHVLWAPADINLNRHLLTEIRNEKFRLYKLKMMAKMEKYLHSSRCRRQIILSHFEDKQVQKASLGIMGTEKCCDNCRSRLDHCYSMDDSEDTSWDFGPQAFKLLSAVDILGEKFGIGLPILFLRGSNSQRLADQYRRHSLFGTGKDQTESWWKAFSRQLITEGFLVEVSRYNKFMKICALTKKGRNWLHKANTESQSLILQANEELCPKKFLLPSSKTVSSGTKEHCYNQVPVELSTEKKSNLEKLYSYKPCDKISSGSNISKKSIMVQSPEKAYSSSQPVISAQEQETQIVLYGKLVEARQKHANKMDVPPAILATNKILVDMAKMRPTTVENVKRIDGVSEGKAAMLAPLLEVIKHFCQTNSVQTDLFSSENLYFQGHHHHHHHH
# protocolDescription: WRN (BV08) ADP-Glo assay
# measurementSetup: WRN-BV08 (aa 517-1235, L1074F); read-out: ADP-Glo_hWRN_IC50
pIC50: −log10 of the molar value.
quantityKind: pIC50

Completed entries (count: 5):
# compound, pIC50
data = [
    ("CCc1c(N2CCN(C(=O)c3c(O)ccc4ncoc34)CC2)c(=O)n2nc(N(C)C)nc2n1CC(=O)NC12CC(C(C)C)(C1)C2 [I-43]", "7.30 to 8.30"),
    ("CCc1c(N2CCN(C(=O)c3c(O)ccc4ncoc34)CC2)c(=O)n2nc(-c3ccnc(OC)c3)nc2n1CC(=O)NC12CC(C(F)(F)C(F)(F)F)(C1)C2 [I-38]", "7.30 to 8.30"),
    ("CCc1c(N2CCN(C(=O)c3cccc4ncoc34)CC2)c(=O)n2nc(-c3ccnc(OC)c3)nc2n1CC(=O)NC12CC(C(C)C)(C1)C2 [I-213]", "7.30 to 8.30"),
    ("CCc1c(N2CCN(C(=O)c3ncnc(C)c3O)CC2)c(=O)n2nc(-c3ccnc(OC)c3)nc2n1CC(=O)N[C@H]1CC[C@H](C(F)(F)F)CC1 [I-242]", "6.30 to 7.00"),
    ("CCc1c(N2CCN(C(=O)c3ncnc(C)c3O)CC2)c(=O)n2nc(-c3ccnc(OC)c3)nc2n1CCC(=O)NC12CC(C(F)(F)F)(C1)C2 [I-13]", "< 6.30"),
]

### Prompt Reported pIC50 for CCc1c(N2CCN(C(=O)c3ncnc(C)c3O)[C@H]3CC[C@@H]32)c(=O)c2nn(C3=CCOCC3)nc2n1CC(=O)NC1CC2(CCC2)C1 [I-185] : what is it?
### Response 7.30 to 8.30
